pIC50: −log10 of the molar value.
What follows is literature data on pIC50 for UniProtKB P06213.

Worked cases, answers included:
{"columns": ["compound", "assay-metric", "result"],
 "data": [
  ["COC(=O)c1cccc(Oc2nc[nH]c(=O)c2-c2cccc(C)c2)c1", "pIC50", "< 4.40"],
  ["CC(C)Cn1c2ccc(C3CCCCO3)cc2c2c3c(c4c(c21)CCc1nn(C)cc1-4)C(=O)NC3 (racemic)", "pIC50", "< 6.00"],
  ["CN(C(=O)c1ccccc1)c1ccc2c(c1)nc(NC(=O)c1ccno1)n2CCC(N)=O", "pIC50", "< 5.22"]
]}

Reported pIC50 for UniProtKB P06213, given CN1CCN(Cc2ccc(NC(=O)c3cc(-c4ccncc4)cnc3O)cc2)CC1 ?
< 4.40

Reported pIC50 for UniProtKB P06213, given CN(C)c1ccnc(Nc2ccc(-c3nc4ccccc4s3)cc2)n1 ?
< 5.00

Reported pIC50 for UniProtKB P06213, given COC(=O)c1cccc(Oc2nc[nH]c(=O)c2-c2ccncc2)c1 ?
< 4.40

Reported pIC50 for UniProtKB P06213, given O=C1Cc2cnc(Nc3ccc(O)cc3)nc2-c2ccccc2N1 ?
< 4.00

Reported pIC50 for UniProtKB P06213, given CC(=O)/C=C/c1c(Oc2cccc(C(C)=O)c2)nc[nH]c1=O ?
< 4.40

Reported pIC50 for UniProtKB P06213, given COc1nc(Nc2ccc(-c3nc4ccccc4s3)c(OC)c2)c2cc[nH]c2n1 ?
< 5.00

Reported pIC50 for UniProtKB P06213, given O=C1Cc2cnc(Nc3cccc(O)c3)nc2-c2ncccc2N1 ?
< 4.00
